System: HT-1080 cells
Assay: Lethality of commercially available CIL41/70 structural analogs
Format: cell-based
Details: Homo sapiens, tested once in technical triplicates
Description: 1,000 cells per 36 μl were seeded in each well in 384-well plates. Lethal compounds were dissolved, and a twofold, 12-point dilution series was prepared in DMSO. […] When the effect of a chemical modulator (M) on L was calculated, we instead used the equation VL|M=(IM,L−I0)/(IM,V−I0), where VL|M, IM,L and IM,V are the normalized viability, and fluorescence intensity from cells treated with M and V, and from cells with M and L, respectively. […]
I'd be grateful if you could share measured EC50 for these entries.

The compound identified as Cc1cc(Br)ccc1OCC(=O)O/N=C(\N)Cc1ccc([N+](=O)[O-])cc1 [CB104] registered its EC50 at > 20 µg/mL

Value of EC50 reported for the compound CC(C)(Oc1ccc(Cl)cc1)C(=O)O/N=C(\N)Cc1ccc(Cl)c(Cl)c1 [CB116] is 5.49 µg/mL

Short answer for CC(=O)NC(=N/OC(C)=O)/C(=N/OC(C)=O)c1nc2ccccc2[nH]1 [CB20] : EC50 was > 20 µg/mL

Entry under test: N[C@H](Cc1ccc([N+](=O)[O-])cc1)NOC(=O)COc1ccc2ccccc2c1 [CB57] . Its EC50 was > 20 µg/mL

Quick note, EC50 for Cc1ccc(OCC(=O)O/N=C(\N)Cc2cccc3ccccc23)cc1C [CB89] landed at > 20 µg/mL

In plain terms, Cc1cc(OCC(=O)O/N=C(\N)Cc2ccc([N+](=O)[O-])cc2)cc(C)c1Cl [CB50] has a documented EC50 of > 20 µg/mL

Note to self: EC50 recorded for COc1ccccc1C/C(N)=N/OC(=O)CC(c1ccccc1)c1ccccc1 [CB122] was 0.98 µg/mL

Entry Cc1ccccc1OCC(=O)O/N=C(\N)Cc1ccc(Cl)cc1 [CB3] , EC50 reported as > 20 µg/mL

Reported EC50 of Cc1cccc(NC(=O)C/C(N)=N/OC(=O)C2CCCN2C(=O)c2ccco2)c1C (centres unmarked) [EN10] : > 20 µg/mL

Recorded EC50 (compound CC(C)(Oc1ccc(Cl)cc1)C(=O)O/N=C(\N)Cc1cccc2ccccc12 [CB113] ): > 20 µg/mL

Sample CC(C)(C)CC(=O)O/N=C(\N)C1(c2ccc(Cl)cc2Cl)CC1 [MB9] ; EC50 observed: > 20 µg/mL

So for CCC(C(=O)O/N=C(\N)Cc1ccc(Cl)cc1Cl)c1ccccc1 (centres unmarked) [CB98] , the logged EC50 turned out to be 4.46 µg/mL

EC50 reading for Cc1ccccc1OCC(=O)O/N=C(\N)Cc1cccs1 [CB21] : > 20 µg/mL

Field EC50 (entry Cc1nn(C/C(N)=N/OC(=O)C(C)C)c(C)c1[N+](=O)[O-] [ZE4] ) reads > 20 µg/mL

What the record says about N/C(Cc1ccc(Cl)cc1)=N\OC(=O)COc1ccccc1Cl [CB4] : EC50 is > 20 µg/mL

The reported value for N/C(Cc1ccc(Cl)cc1Cl)=N\OC(=O)CC1CCCCC1 [CB128] in terms of EC50 is > 20 µg/mL

For reference, reported EC50 for COc1ccc(/C=C(\C#N)C(=O)O/N=C2\CCCCCN2)cc1 [EN1] stands at > 20 µg/mL

Looking up N/C(Cc1cccc2ccccc12)=N\OC(=O)CSc1ccccc1 [CB131] , I see its EC50 listed as > 20 µg/mL

Briefly, EC50 measured for CC(C)(Oc1ccc(Cl)cc1)C(=O)O/N=C(\N)Cc1ccc(Cl)cc1Cl [CB119] : > 20 µg/mL

Looking up COc1ccccc1C/C(N)=N/OC(=O)COc1ccc(C(C)(C)C)cc1 [CB5] , I see its EC50 listed as > 20 µg/mL

Reference for the values: patent US10947188B2
